Tested on: human lung cancer strain NCI-H441
Assay type: cell-based
Method: A test compound was dispensed into a U-bottom 384-well plate as 40 nL serially diluted dimethyl sulfoxide solutions using a liquid handler Echo (LABCYTE). […] This cell suspension was dispensed in an amount of 40 µL per well into a plate containing the test compound, and cultured at 37°C in a 5% carbon dioxide gas incubator. Four days later, 20 µL of CellTiter-Glo (registered trademark) (Promega) was added to each well and […] was measured. […]
Where a SMILES comes first, the peptide text is derived from it. Bridges are numbered along the chain shown (N, C = ends). [ ]: non-standard residue; d: D form. hPhe(3-Cl-4-CF3) = N[C@@H](CCc1ccc(C(F)(F)F)c(Cl)c1)C(=O)O; NPrPhe(4-CF3) = CCCN[C@@H](Cc1ccc(C(F)(F)F)cc1)C(=O)O; NMeGly(cPent) = CN[C@H](C(=O)O)C1CCCC1; NMeD = CN[C@@H](CC(=O)O)C(=O)O; NMeL = CN[C@@H](CC(C)C)C(=O)O; Ac5c = NC1(C(=O)O)CCCC1; Sar = CNCC(=O)O
parameter: log10 of IC50 (log10 of the value in nM)
Values are log10 of IC50 in nM.

[
  {
    "compound": "CCCN1C(=O)CN(C)C(=O)CNC(=O)[C@H]([C@@H](C)CC)NC(=O)[C@H](CC(C)C)N(C)C(=O)C[C@@H](C(=O)N(C)C)N(C)C(=O)[C@H](C2CCCC2)N(C)C(=O)C2(CCCC2)NC(=O)[C@@H]2CCCN2C(=O)[C@H](CCc2ccc(C(F)(F)F)c(Cl)c2)NC(=O)CN(C)C(=O)[C@@H]1Cc1ccc(C(F)(F)F)cc1 [PP0417] ([NMeL]IG[Sar][NPrPhe(4-CF3)][Sar][hPhe(3-Cl-4-CF3)]P[Ac5c][NMeGly(cPent)][NMeD]-NMe2; lactam N-11)",
    "log10 of IC50": 0.59
  }
]

Request: Any idea what its log10 of IC50 is? The compound is CCO[C@@H]1C[C@H]2C(=O)NC3(CC(C)(C)C3)C(=O)N(C)[C@@H](C(CC)CC)C(=O)N(C)[C@H](C(=O)N(C)C)CC(=O)N(C)[C@@H](CC3CC3)C(=O)N[C@@H]([C@@H](C)CC)C(=O)N(C)CC(=O)N(C)[C@H]3C/C=C\CCN(C3=O)[C@@H](Cc3ccc(C(F)(F)F)cc3)C(=O)N(C)CC(=O)N[C@@H](CCc3ccc(C(F)(F)F)c(Cl)c3)C(=O)N2C1 [PP2124]
Response: 1.27

Request: Any idea what its log10 of IC50 is? The compound is CCO[C@@H]1C[C@H]2C(=O)NC3(CCC3)C(=O)N(C)[C@@H](C3CCCC3)C(=O)N(C)[C@H](C(=O)N3CCOCC3)CC(=O)N(C)[C@@H](COC)C(=O)N[C@@H]([C@@H](C)CC)C(=O)N3CC[C@H]3C(=O)N(C)[C@H]3CCCCCN(C3=O)[C@@H](Cc3ccc(C(F)(F)F)cc3)C(=O)N(C)CC(=O)N[C@@H](CCc3cc(F)c(C(F)(F)F)c(F)c3)C(=O)N2C1 [PP0863]
Response: 2.36

Request: Any idea what its log10 of IC50 is? The compound is CCO[C@@H]1C[C@H]2C(=O)NC3(CCC3)C(=O)N(C)[C@@H](C3CCCC3)C(=O)N(C)[C@H](C(=O)N(C)CC)CC(=O)N(C)[C@H]3CCCCCCc4ccc(cc4)C[C@@H](C(=O)N(C)CC(=O)N[C@@H](CCc4ccc(C(F)(F)F)c(OC)c4)C(=O)N2C1)N1CC/C=C\C[C@@H](C1=O)N(C)C(=O)CN(C)C(=O)[C@H]([C@@H](C)CC)NC3=O [PP2263]
Response: 1.29

Request: Any idea what its log10 of IC50 is? The compound is CCO[C@@H]1C[C@H]2C(=O)NC3(CCC3)C(=O)N(C)[C@@H](C3CCCC3)C(=O)N(C)[C@H](C(=O)N3CCOCC3)CC(=O)N(C)[C@@H](CC3CC3)C(=O)N[C@@H]([C@@H](C)CC)C(=O)N(C)CC(=O)N(C)[C@H]3C/C=C\CCN(C3=O)[C@@H](Cc3ccc(F)cc3C)C(=O)N(C)CC(=O)N[C@@H](CCc3cc(F)c(C(F)(F)F)c(F)c3)C(=O)N2C1 [PP1495]
Response: 1.99

Numbers sourced from patent EP4603105A1.
